Target: T1, RsmE P64W (Pseudomonas protegens, UniProt P0DPC3, P64W)
T1 sequence: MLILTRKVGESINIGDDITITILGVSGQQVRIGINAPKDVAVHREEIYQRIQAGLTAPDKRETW
Test: ITC; other site of the dimer holds one SL2 RNA; 50 mM potassium phosphate pH 7.2, 30 mM NaCl, 298 K; 10 uM monomer in the cell
Conditions: tags: C-His6 (kept); chain copies: 2; hairpin; 2 copies of the RNA per protein dimer, value for the second
Recorded Metric: pKd
Keep in mind that pKd stands for -log10 of concentration in molar terms.

The binder identified as GGGCCAUCAAGGACGAUGGUCC (ssRNA, T7 transcript (5' triphosphate expected)) [SL2] registered its pKd at 7.51
